Test system: mouse cortical brain slices
Test method notes: Lysolecithin-treated mouse organotypic slice culture, MBP and Caspr immunostaining
Type: cell-based
Settings: then 5 days treatment, read-out: EC50 of increase in number of Caspr puncta
pEC50: −log10 of the molar value.
Measured property: pEC50

Molecule: COc1ccc(NC(=O)N(c2ccccc2C(C)C)C2CCC(C(=O)O)CC2)c(OC(F)F)n1 (stereo not shown)
Experimental target: mouse cortical brain slices
Measured value: 7.75

* * *

Experimental target: human LPA1 (Homo sapiens)
Construct: expressed in transfected cells
Sequence (Q92633 whole entry): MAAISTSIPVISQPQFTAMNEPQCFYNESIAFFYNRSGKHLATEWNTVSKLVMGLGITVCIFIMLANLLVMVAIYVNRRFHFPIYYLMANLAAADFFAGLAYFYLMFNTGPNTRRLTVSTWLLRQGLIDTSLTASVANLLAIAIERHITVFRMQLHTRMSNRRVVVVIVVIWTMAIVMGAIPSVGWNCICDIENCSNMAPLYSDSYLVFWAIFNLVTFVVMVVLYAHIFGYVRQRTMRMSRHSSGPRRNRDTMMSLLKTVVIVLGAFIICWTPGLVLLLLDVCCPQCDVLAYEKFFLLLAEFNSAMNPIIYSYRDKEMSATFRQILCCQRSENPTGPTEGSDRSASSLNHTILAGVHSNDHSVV
Test method notes: Functional calcium mobilization assay
Assay type: cell-based
Settings: 24 h pre-incubation prior to LPA addition; read-out: Functional LPA1 Ca^+2 mobilization
Protocol: Intracellular calcium was monitored with Fluo-4 (Molecular Devices). Dye was made up in HBSS with 0.1% (w/v) BSA and 2.5 mM probenecid. Plates were read using a FlexStation 3 (Molecular Devices, Sunnyvale, CA). Calcium response was generated by the simultaneous addition of the EC80 of LPA. On the day of assay, media was removed and replaced with dye and 3× fresh compound in HBSS−/− with 0.1% BSA and incubated for 1 h. […]
pIC50: −log10 of the molar value.
Measured property: pIC50

Molecule: COc1ccc(NC(=O)N(c2ccccc2C(C)C)C2CCC(C(=O)O)CC2)c(OC(F)F)n1 (stereo not shown)
Measured property: pIC50
Measured value: 8.00
